Test system: OVCAR-8 ovarian
method_notes: NCI-60 one-dose screen, 48 h (100 = growth as untreated, 0 = no growth, -100 = all killed)
setup_conditions: 10 µM unless noted
Compounds without any hit were thinned out: in the full panel of roughly 83,000, 20% have a hit.
Please note: met applies when growth is 70% or greater, and not met applies otherwise.

[
  {
    "compound": "COc1ccc(C(=O)C2CC2c2ccc(Cl)cc2)cc1 (stereo unspecified)",
    "experimental_target": "OVCAR-8 ovarian",
    "category": "met"
  },
  {
    "compound": "O=S1(=O)N(Cc2ccccc2)[C@@H](Cc2ccccc2)C2O[C@H]2[C@H](Cc2ccccc2)N1Cc1ccccc1 (stereo partly specified)",
    "experimental_target": "OVCAR-8 ovarian",
    "category": "not met"
  },
  {
    "compound": "Nc1ccc(-n2c(=O)oc3ccc(Cl)cc3c2=O)c(Cl)c1",
    "experimental_target": "OVCAR-8 ovarian",
    "category": "not met"
  },
  {
    "compound": "CCOC(=O)c1sc(-c2ccc(OS(=O)(=O)c3ccccc3[N+](=O)[O-])c(C=O)c2)nc1C",
    "experimental_target": "OVCAR-8 ovarian",
    "category": "not met"
  },
  {
    "compound": "COc1ccc(C(=O)Nc2ccc3nc(N4CCCCC4)cc(C)c3c2)cc1OC",
    "experimental_target": "OVCAR-8 ovarian",
    "category": "met"
  },
  {
    "compound": "Cc1cccc(NC(=O)c2sc3nc4c(cc3c2N)CCCC4)c1C",
    "experimental_target": "OVCAR-8 ovarian",
    "category": "not met"
  },
  {
    "compound": "O=c1[nH]nnc2c1ncn2C1OC(CO)C(O)C1O (stereo unspecified)",
    "experimental_target": "OVCAR-8 ovarian",
    "category": "met"
  },
  {
    "compound": "COc1cc([C@@H]2NC(=O)NC(C)=C2C(=O)Nc2nc(-c3ccc(Cl)cc3)cs2)ccc1O",
    "experimental_target": "OVCAR-8 ovarian",
    "category": "met"
  }
]

Problem: Textbook exercise: given the entry S=C1NC2(c3ccccc3)CCC(=S)N2c2ccccc21 (stereo unspecified) , state whether its growth is greater than or equal to 70%.
Solution: met

Problem: Query COc1ccc(/C=C2\N=C(c3ccccc3)N(c3ccc(-c4nc5ccc(C)cc5s4)cc3)C2=O)cc1 next
Solution: met

Problem: Also need N#C/C(=C\c1c(-c2ccccc2)[nH]c2ccccc12)C(=O)c1ccccc1 , thanks.
Solution: not met

Problem: Proceed to CCOc1ccc(Nc2ccnc3cc(Cl)ccc23)cc1
Solution: not met

Problem: Param item: N#C/C(=C1\SC(=O)CN1c1ccccc1)c1nc2ccccc2s1
Solution: met

Problem: And for c1ccc2c(c1)oc1cc3sccc3nc12 ?
Solution: met

Problem: Again, but for CN(O)c1nc(N(C)O)nc(N2CCOCC2)n1
Solution: not met
